Target: T1, ZFP SBS#836 (synthetic, UniProt P08047)
T1 chain: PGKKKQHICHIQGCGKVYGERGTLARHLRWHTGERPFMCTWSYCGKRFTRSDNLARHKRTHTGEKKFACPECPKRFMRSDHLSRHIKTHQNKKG
Assay: EMSA
Conditions: tags: MBP fusion
readoutLabel: pKd
As a rule, pKd stands for the negative log10 of the concentration, concentration in M.

Challenge: # lookup: pKd of GGGGAGGCCC (dsDNA) DNA 1: GGGGAGGCCC DNA 2: GGGCCTCCCC
Response given: 7.62
